- TESTED SYSTEM: human NMDA receptor GluN1-GluN2A (Homo sapiens, UniProt Q05586+Q12879)
- Construct: expressed in transfected cells; host or cells: CHO
- Sequence (Q12879 23-1464, other chains not shown): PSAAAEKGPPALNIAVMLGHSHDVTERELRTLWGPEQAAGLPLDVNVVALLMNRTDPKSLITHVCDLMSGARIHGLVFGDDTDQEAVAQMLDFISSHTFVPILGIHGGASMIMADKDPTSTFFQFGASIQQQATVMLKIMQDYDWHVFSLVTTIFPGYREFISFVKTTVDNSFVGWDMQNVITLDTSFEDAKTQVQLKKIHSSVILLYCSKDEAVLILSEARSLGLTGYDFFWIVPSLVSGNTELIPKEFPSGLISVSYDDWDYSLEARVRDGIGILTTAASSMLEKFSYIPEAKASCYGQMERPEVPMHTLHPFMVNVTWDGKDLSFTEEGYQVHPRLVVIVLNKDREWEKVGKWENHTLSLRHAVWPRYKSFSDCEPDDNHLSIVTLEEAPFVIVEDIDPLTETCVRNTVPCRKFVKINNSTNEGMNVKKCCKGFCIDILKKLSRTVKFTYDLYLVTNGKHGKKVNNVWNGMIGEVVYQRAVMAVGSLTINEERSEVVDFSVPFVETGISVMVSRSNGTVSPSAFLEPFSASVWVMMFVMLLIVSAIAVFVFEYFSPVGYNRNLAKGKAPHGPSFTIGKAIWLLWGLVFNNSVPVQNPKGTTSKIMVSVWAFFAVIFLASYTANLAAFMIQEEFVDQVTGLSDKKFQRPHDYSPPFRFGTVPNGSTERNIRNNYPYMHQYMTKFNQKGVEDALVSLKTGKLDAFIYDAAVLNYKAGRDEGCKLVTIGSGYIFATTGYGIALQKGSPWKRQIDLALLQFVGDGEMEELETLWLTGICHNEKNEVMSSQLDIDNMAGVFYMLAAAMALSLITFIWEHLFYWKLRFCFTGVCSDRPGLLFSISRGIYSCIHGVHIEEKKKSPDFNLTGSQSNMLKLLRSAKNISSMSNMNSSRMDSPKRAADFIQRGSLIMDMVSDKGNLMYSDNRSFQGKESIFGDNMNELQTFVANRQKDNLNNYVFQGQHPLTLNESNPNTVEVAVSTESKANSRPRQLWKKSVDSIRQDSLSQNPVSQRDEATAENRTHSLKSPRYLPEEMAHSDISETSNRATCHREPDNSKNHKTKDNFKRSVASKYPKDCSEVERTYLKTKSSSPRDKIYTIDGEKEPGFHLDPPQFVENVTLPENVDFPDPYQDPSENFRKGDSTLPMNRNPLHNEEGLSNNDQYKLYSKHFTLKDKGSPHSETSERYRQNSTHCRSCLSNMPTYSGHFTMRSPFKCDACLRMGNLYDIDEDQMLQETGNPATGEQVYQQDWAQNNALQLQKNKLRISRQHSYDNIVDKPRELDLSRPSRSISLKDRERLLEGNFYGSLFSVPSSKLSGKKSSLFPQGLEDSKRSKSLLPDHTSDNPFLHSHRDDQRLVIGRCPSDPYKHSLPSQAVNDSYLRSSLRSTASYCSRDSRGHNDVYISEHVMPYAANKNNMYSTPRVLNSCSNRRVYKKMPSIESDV
- METHOD SUMMARY: FLIPR calcium assay, test item effect on L-glutamate CRC, GluN1-GluN2A-CHO
- Type: cell-based
- CONDITION LABEL: with test item 12.5 μM
Counter-ions that a name gives are not always drawn.
Could you please report measured L-glutamate CRC HillSlope for the items listed next?
# answer = number (no unit)

L-glutamate CRC HillSlope reported for this compound CC12CC3CC(C)(C1)CC(N)(C3)C2 [Memantine, memantine hydrochloride] : 1.3

The compound listed as COc1ccc2c(c1)[C@]13CCCC[C@@H]1[C@H](C2)N(C)CC3 [Dextromethorphan, hydrobromide monohydrate] shows L-glutamate CRC HillSlope equal to 1.1

Quick note, L-glutamate CRC HillSlope for CNC1(c2ccccc2Cl)CCCCC1=O (racemic) [(±)-Ketamine, (±)-ketamine hydrochloride] landed at 1.3

GET /value?item= CCC(=O)C(C[C@H](C)N(C)C)(c1ccccc1)c1ccccc1 &field=L-glutamate CRC HillSlope returns 1.0
